- Test system: parainfluenza virus
- assay.overview: Impact on virus-induced cytopathic effect in Vero cells (MTT): parainfluenza virus
- Assay type: cell-based
- conditions.used: parainfluenza virus 100TCID50, Vero, 72 h; drug g/L as Table 1-2
Marks after values point to notes of the source that are not given here.
reported.property: antiviral effective rate (ER %)

compound | reported.property | result
COc1ccc([C@H]2OCC3C2CO[C@H]3c2ccc(O[C@@H]3OC(CO)[C@@H](O)[C@H](O)C3O)c(OC)c2)cc1OC (stereo partly shown) [phillyrin] | antiviral effective rate (ER %) | 84.96** %
COc1cc([C@H]2OC[C@H]3[C@@H]2CO[C@H]3c2ccc(OC)c(OC)c2)ccc1O [Phillygeninin, phillygeninin] | antiviral effective rate (ER %) | 80.72** %
NC(=O)c1ncn([C@@H]2O[C@H](CO)[C@@H](O)[C@H]2O)n1 [Ribavirin] | antiviral effective rate (ER %) | 91.56** %
CCOC(=O)C1=C[C@@H](OC(CC)CC)[C@H](NC(C)=O)[C@@H](N)C1 [oseltamivir phosphate] | antiviral effective rate (ER %) | 94.52** %
